- PROCEDURE SUMMARY: Plasma pharmacokinetic profile in mice (I.V. and P.O.)
- APPLIED CONDITIONS: mouse, plasma, iv, 10 mg/kg
QUANTITY NAME: clearance (mL/min/kg)
Just the number in mL/min/kg, nothing appended.

Asked: What clearance value was documented for this molecule, `COc1nc2cc(F)c(F)cc2nc1NC(=O)NC1CCN(Cc2cc3ccccc3[nH]2)CC1` ?
Given back: 36.8

---

- PROCEDURE SUMMARY: Plasma pharmacokinetic profile in mice (I.V. and P.O.)
- APPLIED CONDITIONS: mouse, plasma, po, 20 mg/kg
QUANTITY NAME: Cmax (ng/mL)
Just the number in ng/mL, nothing appended.

Asked: What Cmax value was documented for this compound, COc1nc2cc(F)c(F)cc2nc1NC(=O)NC1CCN(Cc2cc3ccccc3[nH]2)CC1 [KRX-104130] ?
Given back: 130
